species on record: Homo sapiens; assay: Selectivity index, ratio of IC50 for recombinant human MAO-A to IC50 for recombinant human MAO-B
Test Readout: Ratio IC50
Reply: number alone, nothing else.

Some compounds with known Ratio IC50 results, for comparison:
>  <Mol Smiles>
O=C1/C(=C/c2cccc(Cl)c2)Cc2cc(O)ccc21

>  <Ratio IC50>
5.2

$$$$
>  <Mol Smiles>
O=C1/C(=C/c2cccc(O)c2)Cc2cc(O)ccc21

>  <Ratio IC50>
1.2

$$$$
>  <Mol Smiles>
CC(C)c1ccc(/C=C2\Cc3cc(O)ccc3C2=O)cc1

>  <Ratio IC50>
4.5

$$$$
>  <Mol Smiles>
O=C1/C(=C/c2cccc(F)c2)Cc2cc(O)ccc21

>  <Ratio IC50>
5.5

$$$$
>  <Mol Smiles>
N#Cc1ccc(/C=C2\Cc3cc(O)ccc3C2=O)cc1

>  <Ratio IC50>
6.6

$$$$

Query :: Please give the measured Ratio IC50 for this compound: Cc1ccc(/C=C2\Cc3cc(O)ccc3C2=O)cc1
Result :: 619
